Test system: 186277-243-T-J2-PDC complex spheroid growth, % test/control;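 also: spheroids exposed to agents for 7 days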
Experimental Details: Anticancer human tumor 186277-243-T-J2-PDC patient-derived colon adenocarcinoma cell line growth inhibition [Asc]; active = viability on the fitted dose curve at most 10% of control; inactive = the rest
Run Parameters: second compound 1 µM; first compound 1 µM
Use one of these outcomes when replying: yes = active, no = inactive

Solved cases (4 shown):
Molecule | Class Assignment
C=CC(=O)N1CCN(c2nc(=O)n(-c3c(C)ccnc3C(C)C)c3nc(-c4c(O)cccc4F)c(F)cc23)C(C)C1 (stereo not given) + Cc1c(S(C)(=O)=O)c(-c2cc(F)cc(N3CCN(c4ccc(NS(=O)(=O)c5ccc(NC(CCN6CCC(C(=O)OCCCP(=O)(O)O)CC6)CSc6ccccc6)c(S(=O)(=O)C(F)(F)F)c5)cc4)CC3)c2)c(-c2ccc(Cl)cc2)n1C(C)C | no
O=C(c1ccc(F)c(F)c1Nc1ccc(I)cc1F)N1CC(O)([C@@H]2CCCCN2)C1 + CNC(C)C(=O)NC1CN(S(=O)(=O)c2cccc(S(=O)(=O)N3CCC4CCC(C(=O)NC(c5ccccc5)c5ccccc5)N4C(=O)C(NC(=O)C(C)NC)C3)c2)CCC2CCC(C(=O)NC(c3ccccc3)c3ccccc3)N2C1=O | yes
C=C(F)C(=O)N1CCN(c2nc(OCC3CCCN3C)nc3c2CCN(c2cccc4cccc(Cl)c24)C3)CC1CC#N (stereo not given) + CNC(C)C(=O)NC1CN(S(=O)(=O)c2cccc(S(=O)(=O)N3CCC4CCC(C(=O)NC(c5ccccc5)c5ccccc5)N4C(=O)C(NC(=O)C(C)NC)C3)c2)CCC2CCC(C(=O)NC(c3ccccc3)c3ccccc3)N2C1=O | no
C=C(F)C(=O)N1CCN(c2nc(OCC3CCCN3C)nc3c2CCN(c2cccc4cccc(Cl)c24)C3)CC1CC#N (stereo not given) + Cc1c(S(C)(=O)=O)c(-c2cc(F)cc(N3CCN(c4ccc(NS(=O)(=O)c5ccc(NC(CCN6CCC(C(=O)OCCCP(=O)(O)O)CC6)CSc6ccccc6)c(S(=O)(=O)C(F)(F)F)c5)cc4)CC3)c2)c(-c2ccc(Cl)cc2)n1C(C)C | no

Please find the next molecule below.
Task item: For this molecule, state the assay outcome: C=CC(=O)N1CCN(c2nc(=O)n(-c3c(C)ccnc3C(C)C)c3nc(-c4c(O)cccc4F)c(F)cc23)C(C)C1 (stereo not given) + CNC(C)C(=O)NC1CN(S(=O)(=O)c2cccc(S(=O)(=O)N3CCC4CCC(C(=O)NC(c5ccccc5)c5ccccc5)N4C(=O)C(NC(=O)C(C)NC)C3)c2)CCC2CCC(C(=O)NC(c3ccccc3)c3ccccc3)N2C1=O
Reply: no

Reference for the values: PubChem BioAssay AID1963426
